Overview of recorded pest or weed control at 2000 g/ha for various compounds
Test system: Green Foxtail
Experiment: Postemergence Herbicidal Activity, Green Foxtail
Type: in vivo
Details: Setaria viridis, post-emergence, 2.0 kg/ha
Where a name gives a salt, the structure may show the parent alone.
Record the value in %, omitting the unit from your answer.

Some solved cases for reference:
| COMPOUND | UNIT ABBREV | pest or weed control at 2000 g/ha |
| --- | --- | --- |
| O=c1n(CCCF)nnn1-c1cc(NS(=O)(=O)C(F)(F)F)c(Cl)cc1F [Compound 32, potassium salt] | % | 40 |
| CCS(=O)(=O)Nc1cc(-n2nnn(C)c2=O)c(F)cc1Cl [Compound 43] | % | 40 |
| CCS(=O)(=O)N(c1cc(-n2nnn(CCCF)c2=O)c(Cl)cc1F)S(=O)(=O)CC [Compound 37] | % | 50 |
| CCCn1nnn(-c2cc(NS(=O)(=O)CC)c(Cl)cc2F)c1=O [Compound 51] | % | 80 |
| CS(=O)(=O)N(c1cc(-n2nnn(CCCF)c2=O)c(Cl)cc1F)S(C)(=O)=O [Compound 36] | % | 50 |

Could you now consider this next compound?
Q: Can you look up the measured pest or weed control at 2000 g/ha of CCCn1nnn(-c2cc(N(S(=O)(=O)CC)S(=O)(=O)CC)c(Cl)cc2F)c1=O [Compound 49] for me?
Ans: 95

====

Tested on: Morningglory
Assay: Postemergence Herbicidal Activity, Morningglory
Assay type: in vivo
Settings: Ipomoea, post-emergence, 2.0 kg/ha
Structures can show the parent of a compound that is named as a salt.
Here, each record is paired with measured pest or weed control at 2000 g/ha data.
Just the number in %, nothing appended.

| COMPOUND | RECORDED RESULT |
| --- | --- |
| CS(=O)(=O)N(c1cc(-n2nnn(CCCF)c2=O)c(Cl)cc1F)S(C)(=O)=O | 80 |
| CCCn1nnn(-c2cc(N(S(=O)(=O)CC)S(=O)(=O)CC)c(Cl)cc2F)c1=O | 90 |
| CCCn1nnn(-c2cc(NS(=O)(=O)CC)c(Cl)cc2F)c1=O | 100 |
| CCS(=O)(=O)N(c1cc(-n2nnn(CCCF)c2=O)c(Cl)cc1F)S(=O)(=O)CC | 50 |
| CCS(=O)(=O)Nc1cc(-n2nnn(C)c2=O)c(F)cc1Cl | 100 |

Turning now to a further record.
Q: Can you look up the measured pest or weed control at 2000 g/ha of O=c1n(CCCF)nnn1-c1cc(NS(=O)(=O)C(F)(F)F)c(Cl)cc1F [Compound 32, potassium salt] for me?
Ans: 100

====

System: Rice
Assay: Preemergence Herbicidal Activity, Rice
Type: in vivo
Details: Oryza sativa, pre-emergence, 0.5 kg/ha
PROPERTY: plant injury at 500 g/ha (%)
Supply the numeric figure in %, leaving out any unit text.

| COMPOUND | TESTED SYSTEM | UNIT ABBREV | plant injury at 500 g/ha |
| --- | --- | --- | --- |
| CCS(=O)(=O)N(C)c1cc(-n2nnn(CCCF)c2=O)c(F)cc1Cl [Compound 12] | Rice | % | 90 |

Q: Entry CCCS(=O)(=O)N(c1cc(-n2nnn(CCCF)c2=O)c(F)cc1Cl)S(=O)(=O)CCC [Compound 26] : reported plant injury at 500 g/ha = ?
Ans: 20

Q: What about this compound? CCCS(=O)(=O)Nc1cc(-n2nnn(CCCF)c2=O)c(F)cc1Cl [Compound 28]
Ans: 70

Q: CCS(=O)(=O)N(COC)c1cc(-n2nnn(CCCF)c2=O)c(F)cc1Cl [Compound 15] , same question.
Ans: 100

Q: Item: CS(=O)(=O)N(c1cc(-n2nnn(CCCF)c2=O)c(F)cc1F)S(C)(=O)=O [Compound 8]
Ans: 70

Q: Param item: CCCS(=O)(=O)N(c1cc(-n2nnn(CCCF)c2=O)c(F)cc1F)S(=O)(=O)CCC [Compound 25]
Ans: 20

Q: // next record CCS(=O)(=O)N(c1cc(-n2nnn(CCCF)c2=O)c(F)cc1Cl)S(C)(=O)=O [Compound 11]
Ans: 80

====

Quick reference: plant injury at 250 g/ha of the listed items.
Tested on: Wheat
Test: Postemergence Herbicidal Activity, Wheat
Type: in vivo
Settings: Triticum aestivum, post-emergence, 0.25 kg/ha
Where a name gives a salt, the structure may show the parent alone.
Note: unit % is implicit; provide only the numeric part.

| COMPOUND | UNIT ABBREV | plant injury at 250 g/ha |
| --- | --- | --- |
| CCS(=O)(=O)Nc1cc(-n2nnn(CCCF)c2=O)c(F)cc1Cl [Compound 4] | % | 20 |
| CS(=O)(=O)Nc1cc(-n2nnn(CCCF)c2=O)c(F)cc1Cl | % | 20 |
| CCCS(=O)(=O)N(C)c1cc(-n2nnn(CCCF)c2=O)c(F)cc1Cl | % | 80 |

Q: Notebook: pull reported plant injury at 250 g/ha for Wheat, entry CS(=O)(=O)Nc1cc(-n2nnn(CCCF)c2=O)c(F)cc1Br
Ans: 40

Q: # iterate: CCS(=O)(=O)Nc1cc(-n2nnn(CCCF)c2=O)c(F)cc1Cl [Compound 31, potassium salt]
Ans: 40

Q: And what about the compound CCS(=O)(=O)Nc1cc(-n2nnn(CCCF)c2=O)c(F)cc1Br ?
Ans: 40

Q: Likewise for O=c1n(CCCF)nnn1-c1cc(NS(=O)(=O)C(F)(F)F)c(Cl)cc1F ?
Ans: 10

====

Catalogue of pest or weed control at 250 g/ha readings, one per entry.
Tested on: Johnsongrass
Test: Preemergence Herbicidal Activity, Johnsongrass
Format: in vivo
Details: Sorghum halepense, pre-emergence, 0.25 kg/ha
Counter-ions that a name gives are not always drawn.
Please reply with the bare figure in % and do not write the unit itself.

Examples with their reported pest or weed control at 250 g/ha follow.
| COMPOUND | TESTED SYSTEM | pest or weed control at 250 g/ha (%) |
| --- | --- | --- |
| CCS(=O)(=O)Nc1cc(-n2nnn(CCCF)c2=O)c(F)cc1Br | Johnsongrass | 50 |
| CCS(=O)(=O)Nc1cc(-n2nnn(CCCF)c2=O)c(F)cc1Cl [Compound 31, potassium salt] | Johnsongrass | 70 |
| CS(=O)(=O)Nc1cc(-n2nnn(CCCF)c2=O)c(F)cc1Cl | Johnsongrass | 40 |
| CCS(=O)(=O)Nc1cc(-n2nnn(CCCF)c2=O)c(F)cc1Cl [Compound 4] | Johnsongrass | 30 |
| CCCS(=O)(=O)N(C)c1cc(-n2nnn(CCCF)c2=O)c(F)cc1Cl | Johnsongrass | 100 |

Q: Hi! What's the reported pest or weed control at 250 g/ha for CS(=O)(=O)Nc1cc(-n2nnn(CCCF)c2=O)c(F)cc1Br on Johnsongrass?
Ans: 70

Q: How about O=c1n(CCCF)nnn1-c1cc(NS(=O)(=O)C(F)(F)F)c(Cl)cc1F ?
Ans: 60

====

Tested on: Cotton
Assay: Postemergence Herbicidal Activity, Cotton
Format: in vivo
Settings: Gossypium hirsutum, post-emergence, 0.25 kg/ha
PROPERTY: plant injury at 250 g/ha (%)
Give your result in % as a bare value.

| MOLECULE | TESTED SYSTEM | plant injury at 250 g/ha (%) |
| --- | --- | --- |
| CS(=O)(=O)Nc1cc(-n2nnn(CCCF)c2=O)c(F)cc1Cl [Compound 2] | Cotton | 100 |
| CCS(=O)(=O)Nc1cc(-n2nnn(CCCF)c2=O)c(F)cc1Cl [Compound 4] | Cotton | 100 |
| CCCS(=O)(=O)N(C)c1cc(-n2nnn(CCCF)c2=O)c(F)cc1Cl [Compound 29] | Cotton | 70 |
| O=c1n(CCCF)nnn1-c1cc(NS(=O)(=O)C(F)(F)F)c(Cl)cc1F [Compound 30] | Cotton | 90 |
| CS(=O)(=O)Nc1cc(-n2nnn(CCCF)c2=O)c(F)cc1Br [Compound 33] | Cotton | 100 |

Now, please, on to the next molecule.
Q: // lookup plant injury at 250 g/ha for CCS(=O)(=O)Nc1cc(-n2nnn(CCCF)c2=O)c(F)cc1Br [Compound 34]
Ans: 100

====

Test system: Wheat
Experiment: Preemergence Herbicidal Activity, Wheat
Format: in vivo
Conditions: Triticum aestivum, pre-emergence, 1.0 kg/ha
Excerpt: The herbicidal data in the following Tables 3 and 4 was obtained in the manner described in PCT published application no. […] In those tables, the test compounds are identified by numbers which correspond to those in Table 1, "kg/ha" is kilograms per hectare, and "% C" is percent control.
One threshold, 60%, splits the recorded plant injury at 1000 g/ha values: lower ones are Condition met, equal or higher ones are Condition not met.

Q: Problem: For the compound CCS(=O)(=O)N(c1cc(-n2nnn(CCCF)c2=O)c(F)cc1Br)S(=O)(=O)CC [Compound 22] , is plant injury at 1000 g/ha under 60%?
Ans: Condition not met

Q: # repeat for CCOC(=O)CN(c1cc(-n2nnn(CCCF)c2=O)c(F)cc1Cl)S(=O)(=O)CC [Compound 17]
Ans: Condition met

Q: Cool, now CCN(c1cc(-n2nnn(CCCF)c2=O)c(F)cc1Cl)S(=O)(=O)CC [Compound 13]
Ans: Condition not met

Q: Same question, CCS(=O)(=O)Nc1cc(-n2nnn(CCCF)c2=O)c(Cl)cc1F [Compound 39] this time
Ans: Condition met
